All figures here come from PubChem BioAssay (NCI).

- Tested on: SNB-19 CNS
- TEST_PROTOCOL: NCI tumour cell line growth inhibition, 48 h
Would you kindly list TGI for each of these compounds?

Consider the worked cases shown below.
Ask: Look at this compound and give its reported TGI. COc1ccc(CCCCNCc2cccc(CNCCCCc3ccc(OC)cc3)c2)cc1
Result: 3.29 µM

Ask: Look at this compound and give its reported TGI. COc1cc(C2c3cc4c(cc3OC(NN)C2C)OCO4)cc(OC)c1O (stereo unspecified)
Result: > 100 µM

Ask: Look at this compound and give its reported TGI. O=C(NCCC1CNc2ccccc21)OCc1ccccc1 (stereo unspecified)
Result: > 100 µM

Ask: Look at this compound and give its reported TGI. C#Cc1ccc(-n2c(/C=C/c3ccc(O)cc3)nc3ncccc3c2=O)cc1
Result: > 100 µM

Ask: Look at this compound and give its reported TGI. CC(=O)Nc1ccc(C2CC(c3ccc([N+](=O)[O-])cc3)=Nc3ccccc3S2=O)cc1 (stereo unspecified)
Result: > 100 µM

Go through the items and report each one's TGI.
1. O=c1c(-c2ccccc2)nnc2n(Cc3ccccc3)c3ccccc3n12
2. O=C1C(Cl)N(c2ccccc2Cl)C1c1c[nH]c2ccccc12 (stereo unspecified)
3. COc1cc(/C=C/c2cc(/C=C/c3ccc(O)c(OC)c3)n(C(=O)c3ccccc3Br)n2)ccc1O
4. OCCCCC#Cc1ccccc1C#Cc1cccc(C(F)(F)F)c1
5. O=S(=O)(/N=C(\NO)Nc1ccc(Cl)cc1)c1cc(C(F)(F)F)cc(C(F)(F)F)c1
6. CCC(c1ccccc1)c1noc(CCN(CC)CC)n1 (stereo unspecified)
7. Cc1ccc(S(=O)(=O)N(CC(O)COc2ccccc2)c2c(F)cccc2F)cc1 (stereo unspecified)
8. CC(C)(C)OC(=O)N(CCCCNC(=O)C(F)(F)F)CCCNC(=O)C(F)(F)F

Result:
["> 100 µM", "> 100 µM", "> 100 µM", "36.4 µM", "31.5 µM", "> 100 µM", "> 100 µM", "> 100 µM"]
